Every entry's value here was drawn from ChEMBL document CHEMBL4196078.

# study.system: Gag-Pol polyprotein (Human immunodeficiency virus type 1 group M subtype B (isolate HXB2)(HIV-1))
# test.details: Inhibition of HIV1 reverse transcriptase polymerase

{"smi": "O=C(Oc1ccc2c(c1OC(=O)c1ccccc1)C(=O)c1ccccc1C2=O)c1ccccc1", "IC50 [µM]": 12}
{"smi": "O=C1c2ccccc2C(=O)c2c1ccc(O)c2O", "IC50 [µM]": 79}

---

Reported EC50 by item:
# System: Human immunodeficiency virus 1
# test.details: Antiviral activity against HIV1 infected in human CEM cells assessed as reduction in giant cell formation by microscopic method
# Assay type: functional, organism-based
# particulars: Human immunodeficiency virus 1, CCRF-CEM

{"smi": "Cc1cn([C@@H]2O[C@H](CO[Si](C)(C)C(C)(C)C)[C@@]3(OS(=O)(=O)C=C3N)[C@H]2O[Si](C)(C)C(C)(C)C)c(=O)n(CCCOP(=O)(O)C(=O)OCc2ccccc2)c1=O", "EC50": "0.08 to 4.5 µM"}
{"smi": "Cc1cn([C@@H]2O[C@H](CO[Si](C)(C)C(C)(C)C)[C@@]3(OS(=O)(=O)C=C3N)[C@H]2O[Si](C)(C)C(C)(C)C)c(=O)n(CCCOP(=O)(O)C(=O)O)c1=O", "EC50": "0.08 to 4.5 µM"}
{"smi": "CCOC(=O)P(=O)(O)OCCCn1c(=O)c(C)cn([C@@H]2O[C@H](CO[Si](C)(C)C(C)(C)C)[C@@]3(OS(=O)(=O)C=C3N)[C@H]2O[Si](C)(C)C(C)(C)C)c1=O", "EC50": "0.08 to 4.5 µM"}
